# Tested on: RXF 393 renal
# MEASUREMENT PROTOCOL: NCI-60 one-dose screen, 48 h (100 = growth as untreated, 0 = no growth, -100 = all killed)
# RUN PARAMETERS: 10 µM unless noted
This is part of a sample that, as a whole, favours compounds with a hit. Of some 83,000 tested, about 20% had one in any assay.
EXPERIMENTAL ENDPOINT: growth (%)

MOLECULE: Cc1cccc(C)c1NC(=S)/N=C\c1c(O)[nH]c(=O)[nH]c1=O
RECORDED VALUE: 108

MOLECULE: COC1=C(OC)C(=O)C(SC/C=C(\C)CCCC(C)CCCC(C)CCCC(C)C)=CC1=O (configuration not stated)
RECORDED VALUE: -0.159

MOLECULE: CC1(C)C2CCC1(C)C1(C2)OCCS1 (configuration not stated)
RECORDED VALUE: 96

MOLECULE: CC1=CC(=Nc2ccc(N(C)C)cc2)C=C(C)C1=O
RECORDED VALUE: 65.1

MOLECULE: O=C1C=Cc2ccccc2/C1=C/c1[nH]c(=O)[nH]c1O
RECORDED VALUE: 34.2

MOLECULE: NNC(=O)c1ccccc1N
RECORDED VALUE: 40.6

MOLECULE: N#Cc1ccc(OC(=O)Nc2c(Cl)cc(Cl)cc2Cl)cc1
RECORDED VALUE: 125

MOLECULE: Oc1cccnc1CN1CCCC1
RECORDED VALUE: 116

MOLECULE: CC(CC(CCC(=O)O)(c1ccccc1)c1ccccc1)N(C)C (configuration not stated)
RECORDED VALUE: 105

MOLECULE: O=C(O)c1ccc([N+](=O)[O-])cc1S(=O)(=O)O
RECORDED VALUE: 114

MOLECULE: Cc1ccc[n+](CCC(N)=O)c1
RECORDED VALUE: 106

MOLECULE: NNC(=O)CCCCl
RECORDED VALUE: 96.6

MOLECULE: C[C@H](CCC[C@H](C)OS(=O)(=O)c1ccccc1)OS(=O)(=O)c1ccccc1
RECORDED VALUE: 142

MOLECULE: COC(=O)c1ccccc1C(=O)c1c(C)cc(C)cc1C
RECORDED VALUE: 111

MOLECULE: COC(c1ccc2c(c1)OCO2)C(C)Br (configuration not stated)
RECORDED VALUE: 99.9

MOLECULE: CCOC(=O)CO
RECORDED VALUE: 93.7

MOLECULE: Nc1ccc2ccccc2c1-c1c(N)ccc2ccccc12
RECORDED VALUE: 6.23

MOLECULE: CC1CC(C)S(=O)(=O)C1 (configuration not stated)
RECORDED VALUE: 115

MOLECULE: O=C(OCC1CCCO1)c1ccc([N+](=O)[O-])cc1 (configuration not stated)
RECORDED VALUE: 102

MOLECULE: CC(=O)NNC(=S)N/C=C/c1c(C)ccc([N+](=O)[O-])c1[N+](=O)[O-]
RECORDED VALUE: 105

MOLECULE: CC(C)C1CCC(C)C(O)C1 (configuration not stated)
RECORDED VALUE: 108

MOLECULE: COC(=O)C1(CC(C)=O)NC(=S)NC(=O)C1C#N (configuration not stated)
RECORDED VALUE: 107

MOLECULE: ON1CCCC1
RECORDED VALUE: 107

MOLECULE: O=[N+]([O-])c1c(Cl)ncnc1Cl
RECORDED VALUE: 108

MOLECULE: COc1cc(OC)c2cc(C(=O)c3ccc(C#N)cc3)c(=O)oc2c1
RECORDED VALUE: 109

MOLECULE: OC(CBr)CCBr (configuration not stated)
RECORDED VALUE: 109

MOLECULE: Cc1c(-c2ccc(C3CCCCC3)cc2)nc2ccc(F)cc2c1C(=O)O
RECORDED VALUE: 74.1
